Below, each of the variants is paired with its reported reverse-splicing fitness value.
B1: Azoarcus group I ribozyme (parent)
chain: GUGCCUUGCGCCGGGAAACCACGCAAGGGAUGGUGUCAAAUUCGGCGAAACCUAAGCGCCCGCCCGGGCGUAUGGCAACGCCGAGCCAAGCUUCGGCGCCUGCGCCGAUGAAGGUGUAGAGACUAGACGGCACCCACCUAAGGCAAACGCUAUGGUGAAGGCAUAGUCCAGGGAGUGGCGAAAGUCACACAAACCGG

Variants of: B1
Experiment: reverse-splicing fitness (ratio to wild type); higher = more active; in vitro selection; Mg2+ level not given
// return a plain number; no unit text

Sample records with reverse-splicing fitness:
variant.description: A120U A145C C150U C169U U176G
measure: reverse-splicing fitness
value: 0.00705

variant.description: C82G A111C A120U A145G C150A C169G U176G
measure: reverse-splicing fitness
value: 0.00277

variant.description: C82U A111C A120G A145G C150G C169A U176G
measure: reverse-splicing fitness
value: 0.00775

variant.description: A145C C150A C169G
measure: reverse-splicing fitness
value: 0.0208

variant.description: A111U A145G C150A
measure: reverse-splicing fitness
value: 0.516

variant.description: C82U A111C A120U C150G C169G
measure: reverse-splicing fitness
value: 0.00621

variant.description: C82G A111U A120C A145G C169G U176C
measure: reverse-splicing fitness
value: 0.0281

variant.description: C82A A111U A120G A145G C150U C169A U176G
measure: reverse-splicing fitness
value: 0.00668

variant.description: C82A A111U A120U C150A C169U
measure: reverse-splicing fitness
value: 0.00495

variant.description: C82A A111U A120C A145U C150A C169A
measure: reverse-splicing fitness
value: 0.0109

Query: // returns reported reverse-splicing fitness for input C82G A111C A120U A145G C150G C169U U176A
Result: 0.00988
